The measured values listed here are drawn from PubChem BioAssay (NCI).

Test system: K-562 leukemia
protocol_notes: NCI tumour cell line growth inhibition, 48 h
metric: TGI

### Prompt Dear colleague, I am looking for the recorded TGI of the following molecule: CCOP(C)(=O)C(Cc1c[nH]c2ccccc12)C(=O)O (stereo unspecified)
### Response > 100 µM

### Prompt Dear colleague, I am looking for the recorded TGI of the following molecule: CC(C)=CC1C(COC(=O)c2cc3c(cc2Cl)OCO3)C1(C)C (stereo unspecified)
### Response > 100 µM

### Prompt Dear colleague, I am looking for the recorded TGI of the following molecule: O=S1(=O)OCCOS(=O)(=O)C1I
### Response > 100 µM

### Prompt Dear colleague, I am looking for the recorded TGI of the following molecule: CC1=NN(c2ccccc2)C(=O)C1=C1SCCS1
### Response > 69.1 µM

### Prompt Dear colleague, I am looking for the recorded TGI of the following molecule: COc1cc(NS(C)(=O)=O)ccc1Nc1c2ccc(Cl)cc2nc2c(OC)cccc12
### Response > 100 µM

We now examine a further molecule.
### Prompt Dear colleague, I am looking for the recorded TGI of the following molecule: COc1ccc2c(=O)c(C)c(-c3ccccc3)oc2c1CN(C)C
### Response > 100 µM

---

Tested on: OVCAR-5 ovarian
protocol_notes: NCI tumour cell line growth inhibition, 48 h
GI50 listing for selected molecules.

Worked cases, answers included:
### Prompt Report GI50 for C[C@@H]1CN(C(=O)c2ccc(NC(=O)c3cc(O[C@H](C)c4c(Cl)ccc(F)c4Cl)c(N)nn3)cc2)C[C@H](C)N1 tested on OVCAR-5 ovarian.
### Response 2.76 µM

### Prompt Report GI50 for O=[N+]([O-])c1ccc(Br)c([N+](=O)[O-])c1 tested on OVCAR-5 ovarian.
### Response 1.77 µM

### Prompt Report GI50 for Cn1nccc1Nc1nccc(-c2cc3c(s2)C(C)(C)N(CCN2CCOCC2)C3=O)n1 tested on OVCAR-5 ovarian.
### Response 0.498 µM

Others:
### Prompt Report GI50 for O=c1c2cccc(Cl)c2sc2c(NCCCNCCO)nc3ccccc3c12 tested on OVCAR-5 ovarian.
### Response 2.8 µM

### Prompt Report GI50 for Cn1cc(C2=C(c3cccc4ccccc34)C(=O)NC2=O)c2ccccc21 tested on OVCAR-5 ovarian.
### Response 12.8 µM

---

System: SK-MEL-2 melanoma
protocol_notes: NCI tumour cell line growth inhibition, 48 h
metric: TGI

### Prompt Dear colleague, I am looking for the recorded TGI of the following molecule: COc1cc(N(CCC#N)CCC#N)ccc1/C=C1\SC(=S)NC1=O
### Response > 100 µM

Others:
### Prompt Dear colleague, I am looking for the recorded TGI of the following molecule: COc1cc(N=CN(C)C)c2ncccc2c1
### Response > 100 µM

### Prompt Dear colleague, I am looking for the recorded TGI of the following molecule: COc1cc(C(=O)c2ccc3c(c2)OCO3)cc(OC)c1OC
### Response > 100 µM

### Prompt Dear colleague, I am looking for the recorded TGI of the following molecule: OC(c1nc2ccccc2s1)(C(F)(F)F)C(F)(F)F
### Response > 100 µM

### Prompt Dear colleague, I am looking for the recorded TGI of the following molecule: O=c1[nH]nc(Cc2ccccc2)n1/N=C/c1c(O)ccc2ccccc12
### Response > 100 µM

### Prompt Dear colleague, I am looking for the recorded TGI of the following molecule: COc1cc2nc3sc(C(=O)Nc4ccc(C(=O)OC(C)C)cc4)c(C(=O)Nc4ccc(Cl)cc4C)n3c(=O)c2cc1OC
### Response > 100 µM

### Prompt Dear colleague, I am looking for the recorded TGI of the following molecule: COc1cc(/C=C2\[C@H]3c4c(c(OC)c(C)c(OC)c4OC)C[C@@H](C(=O)N2Cc2ccccc2)N3C(=O)OCC(C)C)c(OC)c(C)c1OC
### Response > 100 µM

### Prompt Dear colleague, I am looking for the recorded TGI of the following molecule: CC[C@H](C)[C@H]1NC(=O)[C@@H](N[C@](C)(O)[C@@H](N)CC(C)C)[C@@H](C)OC(=O)[C@H](Cc2ccc(OC)cc2)N(C)C(=O)[C@@H]2CCCN2C(=O)[C@H](CC(C)C)NC(=O)[C@@H](C)C(=O)[C@H](C(C)C)OC(=O)C[C@@H]1O
### Response 0.0499 µM

### Prompt Dear colleague, I am looking for the recorded TGI of the following molecule: CCCN(CCCCC(NC(C)=O)C(=O)NCc1ccccc1)C(=O)N(C)N=O (centres undefined)
### Response > 100 µM

### Prompt Dear colleague, I am looking for the recorded TGI of the following molecule: C=C1C(=O)O[C@H]2[C@H]1CC/C(COC(=O)CCCCC(=O)OC/C1=C/CC[C@@]3(C)O[C@H]3[C@H]3OC(=O)C(=C)[C@@H]3CC1)=C\CC[C@@]1(C)O[C@@H]21
### Response 75.6 µM

### Prompt Dear colleague, I am looking for the recorded TGI of the following molecule: N#Cc1c(-c2ccc(Cl)cc2)cc(-c2ccc(Nc3ccnc4cc(C(F)(F)F)ccc34)cc2)[nH]c1=O
### Response > 100 µM

### Prompt Dear colleague, I am looking for the recorded TGI of the following molecule: CC1Cc2c(Br)nc(N)nc2NC1=O (centres undefined)
### Response > 100 µM

### Prompt Dear colleague, I am looking for the recorded TGI of the following molecule: COc1ccc(CCN2C(=O)C=CC2=O)cc1OC
### Response 14.8 µM

### Prompt Dear colleague, I am looking for the recorded TGI of the following molecule: CC[C@@H](C(=O)[C@@H](C)[C@@H](O)[C@H](C)[C@@H]1O[C@@H]([C@@H](CC)C(=O)O)CC[C@@H]1C)C1O[C@]2(C=CC(=O)[C@]3(CC[C@@](C)([C@H]4CC[C@](O)(CC)[C@H](C)O4)O3)O2)[C@H](C)C[C@@H]1C (some centres undefined)
### Response 7.03 µM

---

Test system: NCI-H460 lung
protocol_notes: NCI tumour cell line growth inhibition, 48 h
metric: TGI

### Prompt Dear colleague, I am looking for the recorded TGI of the following molecule: Cc1ccc(S(=O)(=O)N2CCN(S(=O)(=O)c3ccc(C)cc3)Cc3ccccc3C2)cc1
### Response > 100 µM

### Prompt Dear colleague, I am looking for the recorded TGI of the following molecule: COc1cc(O)cc(/C=C/c2ccc(O)cc2)c1
### Response > 100 µM

### Prompt Dear colleague, I am looking for the recorded TGI of the following molecule: COc1cccc(-c2cc(=O)c3cc(OC)c(OC)cc3[nH]2)c1
### Response > 100 µM

### Prompt Dear colleague, I am looking for the recorded TGI of the following molecule: CCCN(CCCCC(NC(C)=O)C(=O)NCc1ccccc1)C(=O)N(C)N=O (centres undefined)
### Response > 100 µM

### Prompt Dear colleague, I am looking for the recorded TGI of the following molecule: C1=Cc2ccccc2Nc2ccccc21
### Response > 100 µM

### Prompt Dear colleague, I am looking for the recorded TGI of the following molecule: COc1ccc(CCN2C(=O)C=CC2=O)cc1OC
### Response 46.8 µM

---

Tested on: HOP-62 NSCLC
protocol_notes: NCI tumour cell line growth inhibition, 48 h
metric: TGI

Worked cases, answers included:
### Prompt Dear colleague, I am looking for the recorded TGI of the following molecule: COc1ccc2c(=O)c(C)c(-c3ccccc3)oc2c1CN(C)C
### Response > 100 µM

### Prompt Dear colleague, I am looking for the recorded TGI of the following molecule: Oc1ccc2cc(Br)ccc2c1-c1c(O)ccc2cc(Br)ccc12
### Response 11.1 µM

### Prompt Dear colleague, I am looking for the recorded TGI of the following molecule: Cc1cc(NC(=S)Nc2ccccc2)c(NC(=S)Nc2ccccc2)cc1C
### Response > 100 µM

Others:
### Prompt Dear colleague, I am looking for the recorded TGI of the following molecule: CNC(=O)CN(CC(=O)NC)C(=O)NC
### Response > 100 µM

### Prompt Dear colleague, I am looking for the recorded TGI of the following molecule: Cn1nccc1Nc1nccc(-c2cc3c(s2)C(C)(C)N(CCN2CCOCC2)C3=O)n1
### Response > 100 µM

### Prompt Dear colleague, I am looking for the recorded TGI of the following molecule: O=C(O)CCCCCCC[C@@H]1S[C@H]1CCCCCCO
### Response > 100 µM

### Prompt Dear colleague, I am looking for the recorded TGI of the following molecule: COc1ccc(C[C@@H]2Cc3cc(OC)c(OC)cc3CN2C)cc1
### Response > 100 µM

### Prompt Dear colleague, I am looking for the recorded TGI of the following molecule: CC[C@@H](C(=O)[C@@H](C)[C@@H](O)[C@H](C)[C@@H]1O[C@@H]([C@@H](CC)C(=O)O)CC[C@@H]1C)C1O[C@]2(C=CC(=O)[C@]3(CC[C@@](C)([C@H]4CC[C@](O)(CC)[C@H](C)O4)O3)O2)[C@H](C)C[C@@H]1C (some centres undefined)
### Response 18.3 µM

### Prompt Dear colleague, I am looking for the recorded TGI of the following molecule: Cc1ccc(/C(O)=C/c2nc3ccccc3oc2=O)cc1
### Response > 100 µM

### Prompt Dear colleague, I am looking for the recorded TGI of the following molecule: O=C1C=CC2(O[C@H](c3ccccc3)[C@@H](c3ccccc3)O2)C(SC(=O)c2ccccc2)C1 (some centres undefined)
### Response 3.31 µM
